# EXPERIMENTAL SYSTEM: human reticulocyte 15-lipoxygenase-1 (12/15-LOX) (Homo sapiens (Human), UniProt P16050)
# Sequence (P16050 whole entry): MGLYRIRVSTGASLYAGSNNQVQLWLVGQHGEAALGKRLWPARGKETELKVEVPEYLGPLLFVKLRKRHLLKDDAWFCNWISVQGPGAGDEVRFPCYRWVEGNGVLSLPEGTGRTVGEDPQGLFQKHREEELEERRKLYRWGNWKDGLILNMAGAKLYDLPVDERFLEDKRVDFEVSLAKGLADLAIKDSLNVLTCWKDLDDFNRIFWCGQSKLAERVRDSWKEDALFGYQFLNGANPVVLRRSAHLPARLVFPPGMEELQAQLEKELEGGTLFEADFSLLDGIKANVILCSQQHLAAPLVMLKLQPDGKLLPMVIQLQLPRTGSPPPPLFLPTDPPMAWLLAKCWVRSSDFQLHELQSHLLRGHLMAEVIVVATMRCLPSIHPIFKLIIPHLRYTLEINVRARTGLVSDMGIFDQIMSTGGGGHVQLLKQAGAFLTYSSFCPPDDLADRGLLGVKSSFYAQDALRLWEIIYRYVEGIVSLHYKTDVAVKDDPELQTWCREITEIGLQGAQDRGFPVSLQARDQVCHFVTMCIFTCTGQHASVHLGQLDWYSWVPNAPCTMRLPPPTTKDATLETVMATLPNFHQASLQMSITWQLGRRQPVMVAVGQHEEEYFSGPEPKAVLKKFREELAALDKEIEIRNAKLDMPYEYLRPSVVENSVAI
# PROCEDURE DETAILS: Lipoxygenase UV-Vis cuvette-based assay, 12/15-LOX
# Assay type: biochemical
# MEASUREMENT SETUP: UV-Vis cuvette-based assay in triplicate; 10 μM AA; read-out: IC50 (μM) [±SD (μM)]
ENDPOINT: IC50

Study these solved cases before continuing.
Could you tell me which IC50 is on file for CNc1oc(-c2ccc3c(c2)OCCO3)nc1C#N [Compound 9] ?
> 40 µM

For CNc1oc(-c2cccc3cnccc23)nc1C#N [Compound 3] then?
> 30 µM

Consider the record given below.
Could you tell me which IC50 is on file for CNc1oc(-c2cccc3nccnc23)nc1C#N [Compound 6] ?
> 40 µM

----------
# PROCEDURE DETAILS: In vivo PK (mouse) at 30 mpk IP
# MEASUREMENT SETUP: male, CD1, mouse, plasma, ip, 30 mg/kg, T1/2 (Plasma), mouse, 30 mpk IP
ENDPOINT: half-life

Could you tell me which half-life is on file for `CNc1oc(-c2cccc3ccccc23)nc1C#N` ?
~1 h

----------
# PROCEDURE DETAILS: In vivo PK (mouse) at 30 mpk IP
# MEASUREMENT SETUP: male, CD1, mouse, brain, ip, 30 mg/kg
ENDPOINT: Tmax (min)
Give the value in min but do not write min after it.

Could you tell me which Tmax is on file for `CNc1oc(-c2cccc3ccccc23)nc1C#N` ?
30

----------
# PROCEDURE DETAILS: In vivo PK (mouse) at 30 mpk IP
# MEASUREMENT SETUP: male, CD1, mouse, brain, ip, 30 mg/kg, T1/2 (Brain), mouse, 30 mpk IP
ENDPOINT: half-life

Could you tell me which half-life is on file for CNc1oc(-c2cccc3ccccc23)nc1C#N [Compound 1] ?
~1 h

----------
# PROCEDURE DETAILS: In vivo PK (mouse) at 30 mpk IP
# MEASUREMENT SETUP: male, CD1, mouse, plasma, ip, 30 mg/kg
ENDPOINT: Tmax (min)
Give the value in min but do not write min after it.

Could you tell me which Tmax is on file for CNc1oc(-c2cccc3ccccc23)nc1C#N [Compound 1] ?
15

----------
# EXPERIMENTAL SYSTEM: human platelet 12-lipoxygenase (12-LOX) (Homo sapiens (Human))
# Sequence (P18054 whole entry): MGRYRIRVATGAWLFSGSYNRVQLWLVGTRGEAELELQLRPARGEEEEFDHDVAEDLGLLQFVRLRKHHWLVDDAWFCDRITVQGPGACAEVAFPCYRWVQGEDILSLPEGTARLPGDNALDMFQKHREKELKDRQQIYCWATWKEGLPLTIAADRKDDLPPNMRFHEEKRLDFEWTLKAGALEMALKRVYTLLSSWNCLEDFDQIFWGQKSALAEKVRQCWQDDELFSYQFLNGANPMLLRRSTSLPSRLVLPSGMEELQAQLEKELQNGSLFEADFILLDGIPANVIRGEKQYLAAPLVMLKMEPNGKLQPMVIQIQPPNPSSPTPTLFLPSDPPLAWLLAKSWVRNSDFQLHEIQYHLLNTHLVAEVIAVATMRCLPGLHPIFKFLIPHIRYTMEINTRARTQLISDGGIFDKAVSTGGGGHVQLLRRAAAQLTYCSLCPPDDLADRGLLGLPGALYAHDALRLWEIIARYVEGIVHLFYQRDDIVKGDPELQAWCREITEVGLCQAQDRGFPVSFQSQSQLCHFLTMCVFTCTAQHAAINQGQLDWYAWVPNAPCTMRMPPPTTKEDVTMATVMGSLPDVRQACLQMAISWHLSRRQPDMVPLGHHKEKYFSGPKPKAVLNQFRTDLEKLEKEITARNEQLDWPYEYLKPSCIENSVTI
Entries and their IC50 values follow.

Find IC50 (human platelet 12-lipoxygenase (12-LOX) (Homo sapiens (Human))) for the entry CNc1oc(-c2cccc3ccccc23)nc1C#N [Compound 1]
> 100 µM

Others:
Find IC50 (human platelet 12-lipoxygenase (12-LOX) (Homo sapiens (Human))) for the entry CNc1sc(-c2cccc3ccccc23)nc1C#N [Compound 32]
> 40 µM

----------
# EXPERIMENTAL SYSTEM: Human 5-lipoxygenase (5-LOX) (Homo sapiens (Human), UniProt P09917)
# Sequence (P09917 whole entry): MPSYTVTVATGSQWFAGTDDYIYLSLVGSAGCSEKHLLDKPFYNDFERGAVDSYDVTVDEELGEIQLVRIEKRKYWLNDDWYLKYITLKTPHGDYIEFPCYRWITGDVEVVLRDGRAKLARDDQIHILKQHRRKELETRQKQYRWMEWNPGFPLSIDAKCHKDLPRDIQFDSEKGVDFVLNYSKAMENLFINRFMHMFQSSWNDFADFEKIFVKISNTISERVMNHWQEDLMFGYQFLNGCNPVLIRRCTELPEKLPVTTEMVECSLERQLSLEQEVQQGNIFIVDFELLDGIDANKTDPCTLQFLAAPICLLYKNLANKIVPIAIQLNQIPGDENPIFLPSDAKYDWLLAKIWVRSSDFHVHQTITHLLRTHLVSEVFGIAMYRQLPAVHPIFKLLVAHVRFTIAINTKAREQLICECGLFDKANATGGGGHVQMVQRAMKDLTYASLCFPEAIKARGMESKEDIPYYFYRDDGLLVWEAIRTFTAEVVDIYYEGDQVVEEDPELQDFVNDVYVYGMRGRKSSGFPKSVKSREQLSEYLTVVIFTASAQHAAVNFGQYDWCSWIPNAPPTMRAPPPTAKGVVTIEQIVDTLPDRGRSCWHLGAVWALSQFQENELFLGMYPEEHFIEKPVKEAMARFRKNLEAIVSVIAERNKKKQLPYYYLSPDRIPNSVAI
pIC50: −log10 of the molar value.
ENDPOINT: pIC50

Could you tell me which pIC50 is on file for `CNc1oc(-c2cccc(Cl)c2Cl)nc1C#N` ?
< 4.00

----------
# PROCEDURE DETAILS: In vivo PK (mouse) at 30 mpk IP
# MEASUREMENT SETUP: male, CD1, mouse, plasma, ip, 30 mg/kg
ENDPOINT: Cmax
Give the figure together with its unit, number first.

Could you tell me which Cmax is on file for CNc1oc(-c2cccc3ccccc23)nc1C#N [Compound 1] ?
13.8 µM
